Trep Concentration 60 min values by entry
# ASSAY DETAILS: Stability in human subcutaneous skin homogenate
Could you give me the number in µM? Just the number is fine.

- COMPOUND: "CCCCCC(CCC1C(O)CC2Cc3c(cccc3OCC(=O)O)CC21)OCOC(=O)C(C)(C)C (stereo not drawn)"
  VALUE UNITS: "µM"
  TEST RESULT: 1.22
- COMPOUND: "CCCCCC(CCC1C(O)CC2Cc3c(cccc3OCC(=O)O)CC21)OC(=O)COc1ccc(OC(F)(F)F)cc1 (stereo not drawn)"
  VALUE UNITS: "µM"
  TEST RESULT: 0.155
- COMPOUND: "CCCCCC(CCC1C(O)CC2Cc3c(cccc3OCC(=O)O)CC21)OC(=O)CCC(=O)O (stereo not drawn) [XX new]"
  VALUE UNITS: "µM"
  TEST RESULT: 0.0149
- COMPOUND: "CCCCCC(CCC1C(O)CC2Cc3c(cccc3OCC(=O)O)CC21)OC(=O)C(N)CCCCN (stereo not drawn)"
  VALUE UNITS: "µM"
  TEST RESULT: 0.82
- COMPOUND: "CCCCCC(CCC1C(O)CC2Cc3c(cccc3OCC(=O)O)CC21)OC(=O)C(C)N (stereo not drawn)"
  VALUE UNITS: "µM"
  TEST RESULT: 0.204

Now for the compound whose Trep Concentration 60 min we want.
Name the recorded Trep Concentration 60 min for CCCCCC(CCC1C(O)CC2Cc3c(cccc3OCC(=O)O)CC21)OC(=O)CN (stereo not drawn) .
0.369

###

# ASSAY DETAILS: Stability in liver microsomes, rat
MEASURED ENDPOINT: Trep Concentration 10 min (µM)
Hi! Could you send only the number? It should be in µM, unit omitted.

- COMPOUND: "CCCCCC(CCC1C(O)CC2Cc3c(cccc3OCC(=O)O)CC21)OC(=O)c1ccc(O)c(O)c1 (stereo not shown)"
  Trep Concentration 10 min, µM: 0.00332
- COMPOUND: "CCCCCC(CCC1C(O)CC2Cc3c(cccc3OCC(=O)O)CC21)OC(=O)c1ccccc1O (stereo not shown)"
  Trep Concentration 10 min, µM: 0
- COMPOUND: "CCCCCC(CCC1C(O)CC2Cc3c(cccc3OCC(=O)O)CC21)OC(=O)c1ccc(C)cc1 (stereo not shown)"
  Trep Concentration 10 min, µM: 0.0944
- COMPOUND: "CCCCCC(CCC1C(O)CC2Cc3c(cccc3OCC(=O)O)CC21)OC(=O)c1ccc(OC(F)(F)F)cc1 (stereo not shown)"
  Trep Concentration 10 min, µM: 0.0539
- COMPOUND: "CCCCCC(CCC1C(O)CC2Cc3c(cccc3OCC(=O)O)CC21)OC(=O)C(C)C (stereo not shown)"
  Trep Concentration 10 min, µM: 0.369
- COMPOUND: "CCCCCC(CCC1C(O)CC2Cc3c(cccc3OCC(=O)O)CC21)OC(=O)OCC (stereo not shown)"
  Trep Concentration 10 min, µM: 0.97
- COMPOUND: "CCCCCC(CCC1C(O)CC2Cc3c(cccc3OCC(=O)O)CC21)OCC (stereo not shown)"
  Trep Concentration 10 min, µM: 0.0292
- COMPOUND: "CCCCCC(CCC1C(O)CC2Cc3c(cccc3OCC(=O)O)CC21)OC(=O)CCN (stereo not shown)"
  Trep Concentration 10 min, µM: 0
- COMPOUND: "CCCCCC(CCC1C(O)CC2Cc3c(cccc3OCC(=O)O)CC21)OC(=O)c1ccc(O)cc1 (stereo not shown)"
  Trep Concentration 10 min, µM: 0.00792
- COMPOUND: "CCCCCC(CCC1C(O)CC2Cc3c(cccc3OCC(=O)O)CC21)OC(=O)N1CCC(O)CC1 (stereo not shown)"
  Trep Concentration 10 min, µM: 0

Entry CCCCCC(CCC1C(O)CC2Cc3c(cccc3OCC(=O)O)CC21)OC(=O)CCC(=O)O (stereo not shown) : reported Trep Concentration 10 min = ?
0.24

Similarly, CCCCCC(CCC1C(O)CC2Cc3c(cccc3OCC(=O)O)CC21)OC(=O)OC(C)C (stereo not shown) ?
0.46

And CCCCC[C@@H](CC[C@@H]1[C@H]2Cc3cccc(OCC(=O)O)c3C[C@H]2C[C@H]1O)OC(=O)[C@@H](N)C(C)C ?
0.00463

Also, CCCCCC(CCC1C(O)CC2Cc3c(cccc3OCC(=O)O)CC21)OC(=O)CC (stereo not shown) please.
0.43
